Origin of the recorded values: ChEMBL document CHEMBL4118122

Procedure Summary: Half life in Sprague-Dawley rat at 0.5 mg/kg, iv
Type: ADME, organism-based
Condition Label: in vivo
Measured Metric: half-life (min)
Give just the numeric value; min need not be written.

Q. What value of half-life has been recorded for this entry: CC(C)(C)NS(=O)(=O)c1ccc(-c2sc(C(=O)N3CC4(C3)CS(=O)(=O)C4)nc2CC2CCCCC2)c(Cl)c1Cl
A. 90

Q. And for CC(C)(C)NS(=O)(=O)c1ncc(-c2sc(C(=O)N[C@H]3C[C@H](C(=O)O)C3)nc2CC2CCCCC2)c2ccccc12 ?
A. 18

Q. And for CCC(C)(C)NS(=O)(=O)c1ccc(-c2sc(C(=O)N[C@H]3C[C@H](C(=O)O)C3)nc2CC2CCCCC2)c(Cl)c1C ?
A. 24

* * *

Measured On: Neuromedin-K receptor (Homo sapiens, UniProt P29371)
Sequence (P29371 whole entry): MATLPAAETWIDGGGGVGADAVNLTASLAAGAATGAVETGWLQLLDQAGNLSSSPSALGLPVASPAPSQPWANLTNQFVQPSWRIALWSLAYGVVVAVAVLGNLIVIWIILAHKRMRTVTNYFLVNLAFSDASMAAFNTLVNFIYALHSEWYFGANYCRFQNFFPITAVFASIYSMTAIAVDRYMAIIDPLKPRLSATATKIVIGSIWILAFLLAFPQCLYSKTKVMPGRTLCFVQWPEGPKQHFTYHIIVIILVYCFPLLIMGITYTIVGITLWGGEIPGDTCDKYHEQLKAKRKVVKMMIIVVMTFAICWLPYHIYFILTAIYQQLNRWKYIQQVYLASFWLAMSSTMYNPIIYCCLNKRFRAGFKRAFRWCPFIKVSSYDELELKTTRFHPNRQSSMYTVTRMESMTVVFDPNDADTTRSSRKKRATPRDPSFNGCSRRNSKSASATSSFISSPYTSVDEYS
Procedure Summary: Displacement of [3H]SR 142801 from human recombinant NK3 receptor after 120 mins by scintillation counting analysis
Measured Metric: IC50 (nM)
Give just the numeric value; nM need not be written.

Q. What value of IC50 has been recorded for this entry: CC(C)(C)NS(=O)(=O)c1ccc(-c2sc(C(=O)N[C@H]3C[C@H](C(=O)O)C3)nc2CC2CCCCC2)c2ccccc12
A. 8.2

* * *

Hi there, I'd appreciate the recorded AUC(0-inf) for every entry that follows.
Procedure Summary: AUC (0 to infinity) in Sprague-Dawley rat at 1 mg/kg, iv
Type: ADME, organism-based
Set-up: dose 1 mg/kg, time infinity, route intravenous
Condition Label: in vivo
Give just the numeric value; ng·h/mL need not be written.

Q. What value of AUC(0-inf) has been recorded for this entry: C[C@H](NS(=O)(=O)c1ccc(-c2sc(C(=O)NCC(C)(C)O)nc2CC2CC2)c2ccccc12)C(F)(F)F
A. 415

Q. And for CC(C)(C)NS(=O)(=O)c1ccc(-c2sc(C(=O)N[C@H]3C[C@H](C(=O)O)C3)nc2CC2CCCCC2)c2ccccc12 ?
A. 325

Q. And for CC(C)(C)NS(=O)(=O)c1ccc(-c2sc(C(=O)N[C@H]3C[C@H](C(=O)O)C3)nc2CC2CCCCC2)c(Cl)c1 ?
A. 162

Q. And for C[C@H](NS(=O)(=O)c1ccc(-c2sc(C(=O)NC3CCS(=O)(=O)CC3)nc2CC2CC2)c2ccccc12)C(F)(F)F ?
A. 792

Q. And for C[C@H](NS(=O)(=O)c1ccc(-c2sc(C(=O)NCC(C)(C)O)nc2CC2CCC2)c(C(F)F)c1)C(F)(F)F ?
A. 198

* * *

Measured On: PXR (NR1I2) (Homo sapiens, UniProt O75469)
Sequence (O75469 whole entry): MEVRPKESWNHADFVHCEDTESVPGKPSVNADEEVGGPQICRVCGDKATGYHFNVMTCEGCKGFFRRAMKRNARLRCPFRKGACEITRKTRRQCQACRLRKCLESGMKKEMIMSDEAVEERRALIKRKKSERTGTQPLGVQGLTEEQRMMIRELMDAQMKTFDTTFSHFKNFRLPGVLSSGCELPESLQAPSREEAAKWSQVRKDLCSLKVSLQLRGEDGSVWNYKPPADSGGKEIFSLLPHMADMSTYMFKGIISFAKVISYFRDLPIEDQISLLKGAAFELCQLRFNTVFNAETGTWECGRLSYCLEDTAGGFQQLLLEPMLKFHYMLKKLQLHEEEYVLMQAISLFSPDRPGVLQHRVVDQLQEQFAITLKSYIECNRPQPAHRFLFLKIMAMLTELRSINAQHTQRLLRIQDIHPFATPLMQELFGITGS
Procedure Summary: […] at PXR LBD (unknown origin) expressed in HEK293 cells […] at 10 uM after 16 hrs by luciferase reporter gene assay relative to rifampicin
Type: ADME, cell-based
Condition Label: HEK293 cells expressing PXR LBD, read-out: Efficacy
Hi there, I'd appreciate the recorded Emax at 16 h, 10 µM for every entry that follows.
Give the value; after it, write the unit.

Q. What value of Emax at 16 h, 10 µM has been recorded for this entry: CC(C)(C)NS(=O)(=O)c1ccc(-c2sc(C(=O)N[C@H]3C[C@H](C(=O)O)C3)nc2CC2CCCCC2)c2ccccc12
A. 195%

Q. And for CC(C)(C)NS(=O)(=O)c1ccc(-c2sc(C(=O)NC34CC(C(=O)O)(C3)C4)nc2CC2CCCCC2)c2ccccc12 ?
A. 116%

Q. And for CCS(=O)(=O)c1ccc(CNC(=O)c2nc(CC3CCCCC3)c(-c3ccc(S(=O)(=O)NC(C)(C)C)c4ccccc34)s2)cc1 ?
A. 94%

* * *

Hi there, I'd appreciate the recorded half-life for every entry that follows.
Procedure Summary: Half life in rat microsomes
Type: ADME, Microsome

Q. What value of half-life has been recorded for this entry: C[C@H](NS(=O)(=O)c1ccc(-c2sc(C(=O)NCC(C)(C)O)nc2COC(C)(C)C)c(Cl)c1Cl)C(F)(F)F
A. > 3 h

Q. And for CC(C)(C)NS(=O)(=O)c1ccc(-c2sc(C(=O)N[C@H]3C[C@H](C(=O)O)C3)nc2CC2CCCCC2)c(C(F)(F)F)c1 ?
A. 2.33 h

Q. And for CC(C)(C)NS(=O)(=O)c1ccc(-c2sc(C(=O)N[C@H]3C[C@H](C(=O)O)C3)nc2CC2CCCCC2)c2ccccc12 ?
A. 0.783 h

* * *

Measured On: UniProtKB O75469
Procedure Summary: […] at PXR LBD (unknown origin) expressed in HEK293 cells […] at 1 uM after 16 hrs by luciferase reporter gene assay relative to rifampicin
Format: ADME, cell-based
Condition Label: HEK293 cells expressing PXR LBD, read-out: Efficacy
Hi there, I'd appreciate the recorded Emax at 16 h, 1 µM for every entry that follows.

Q. What value of Emax at 16 h, 1 µM has been recorded for this entry: CC(C)(CCF)NS(=O)(=O)c1ccc(-c2sc(C(=O)N[C@H]3C[C@H](C(=O)O)C3)nc2CC2CCCCC2)c2ccccc12
A. 91%

Q. And for CC(C)(C)NS(=O)(=O)c1ccc(-c2sc(C(=O)NCC3CS(=O)(=O)C3)nc2CC2CCCCC2)c2ccccc12 ?
A. 140%

Q. And for CC(C)(O)CNC(=O)c1nc(CC2CCCCC2)c(-c2ccc(S(=O)(=O)NC3(C#N)CC3)c3ccccc23)s1 ?
A. 155%

Q. And for C[C@H](NC(=O)c1cc(-c2sc(C(=O)N[C@H]3C[C@H](C(=O)O)C3)nc2CC2CCCCC2)cc(C(C)(C)C)c1)C(F)(F)F ?
A. 29%

Q. And for C[C@H](NS(=O)(=O)c1ccc(-c2sc(C(=O)NCC(C)(C)O)nc2Cc2ccc(F)cc2)c(Cl)c1Cl)C(F)(F)F ?
A. 80%

Q. And for CC(C)(C)NS(=O)(=O)c1ccc(-c2sc(C(=O)N[C@H]3C[C@H](C(=O)O)C3)nc2CC2CCCCC2)c2ccccc12 ?
A. 141%
